Measured self-cleavage by item
B1: HDV Ribozyme (parent)
chain: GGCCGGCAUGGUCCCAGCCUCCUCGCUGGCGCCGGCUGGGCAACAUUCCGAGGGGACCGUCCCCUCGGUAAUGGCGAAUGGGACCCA

- Variants of: B1
- TEST_METHOD_NOTES: self-cleavage, relative activity (ratio to wild type); higher = more cleavage; co-transcriptional
Provide a numeric answer; units are not to be included.

Use the examples below as a reference point.
MUTATION_KEY: A71G G74C
self-cleavage: 0.383
--
MUTATION_KEY: A43G A71C
self-cleavage: 1.01
--
MUTATION_KEY: C4A G5U
self-cleavage: 0.122

Input line: For the variant A51U C66U , what self-cleavage is on record?
Output line: 1.07

Input line: Which self-cleavage reading was recorded for the variant U23G U60C ?
Output line: 0.831

Input line: Data request, read-out self-cleavage, for G11U C57A
Output line: 0.447
